Entry source: ChEMBL document CHEMBL1133135

molecular target: Protein farnesyltransferase (Homo sapiens, UniProt P49354+P49356); experiment: Inhibitory activity against recombinant mammalian protein Farnesyltransferase expressed in baculovirus
endpoint_name: IC50
I'd appreciate it if you included the unit after the number.

Illustrative cases are given below, each with its answer.
CC(C)=CCC/C(C)=C/CC/C(=C/COP(=O)(O)OP(=O)(O)O)C(C)C = 35 nM
CCC/C(=C\COP(=O)(O)OP(=O)(O)O)CC/C=C(\C)CCC=C(C)C = 453 nM
C=C(C)/C(=C\COP(=O)(O)OP(=O)(O)O)CC/C=C(\C)CCC=C(C)C = 18 nM
CCC(C)/C(=C\COP(=O)(O)OP(=O)(O)O)CC/C=C(\C)CCC=C(C)C (stereo not drawn) = 102 nM
CC(C)=CCC/C(C)=C/CC/C(=C/COP(=O)(O)OP(=O)(O)O)c1ccc(F)cc1 = 10100 nM
CC(C)=CCC/C(C)=C/CC/C(=C/COP(=O)(O)OP(=O)(O)O)CC(C)C = 290 nM
CC(C)=CCC/C(C)=C/CC/C(=C/COP(=O)(O)OP(=O)(O)O)CC(C)(C)C = 6600 nM

Q) IC50 for C=CC/C(=C\COP(=O)(O)OP(=O)(O)O)CC/C=C(\C)CCC=C(C)C ?
A) 119 nM
